- target.system: T1, cynomolgus monkey CD8A on primary cynomolgus monkey CD8+ T cells (cynomolgus monkey, UniProt P01732 23-235 (human entry))
- T1 construct: also called Cyno CD8alpha
- T1 sequence (P01732 other isoform, or with tags, fused parts or gaps limits assumed): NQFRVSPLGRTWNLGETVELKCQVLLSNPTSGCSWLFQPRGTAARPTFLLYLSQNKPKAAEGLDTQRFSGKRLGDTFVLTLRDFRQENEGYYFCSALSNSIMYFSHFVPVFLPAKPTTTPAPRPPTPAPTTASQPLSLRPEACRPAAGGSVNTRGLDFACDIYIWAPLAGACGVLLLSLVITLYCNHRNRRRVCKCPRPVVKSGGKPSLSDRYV
- assay.explanation: flow cytometry, cyno CD8+ T cells, 2 uM FN3
attribute.measured: Cyno T-cell Binding 2 uM (MFI)

(1) P282DR9P1359_F2 (designed binder, FN3 domain) LPAPKNLVVSRVTEDSARLSWTAPDAAFDSFNIAYPEALHPGYGEAIVLTVPGSERSYDLTGLKPGTEYWVIIGGVKGGQKSWPLSAIFTTGGHHHDHH
(2) P283AR9P1362_C12 (designed binder, FN3 domain) LPAPKNLVVSRVTEDSARLSWAKNLHSFDSFLIQYQESEKVGEAIVLTVPGSERSYDLTGLKPGTEYTVSIYGVDVKYDIDSRPISSNPLSAIFTT
Task: So which one has the bigger Cyno T-cell Binding 2 uM (MFI) here, 1 or 2 ? Answer by stating the label of the chosen item.
Result: 1
